Values compiled from patent US20140213531A1.

molecular target: Thrombin, from Human Plasma, high activity (human, UniProt P00734 328-622); assay: cell-based or functional assay
Bridges are numbered along the chain shown (N, C = ends). [ ]: non-standard residue; d: D form.
Measured Parameter: % inhibition at 100 µM (%)
// return numeric value only (unit: %, not printed)

Prompt line: Field request: % inhibition at 100 µM | item: FCTKSDPPICS (HELM PEPTIDE1{F.C.T.K.S.D.P.P.I.C.S.[dP].P}$PEPTIDE1,PEPTIDE1,2:R3-10:R3|PEPTIDE1,PEPTIDE1,1:R1-13:R2$$$V2.0; SMILES CC[C@H](C)[C@@H]1NC(=O)[C@@H]2CCCN2C(=O)[C@@H]2CCCN2C(=O)[C@H](CC(=O)O)NC(=O)[C@H](CO)NC(=O)[C@H](CCCCN)NC(=O)[C@H]([C@@H](C)O)NC(=O)[C@@H]2CSSC[C@H](NC1=O)C(=O)N[C@@H](CO)C(=O)N1CCC[C@@H]1C(=O)N1CCC[C@H]1C(=O)N[C@@H](Cc1ccccc1)C(=O)N2) [Example 4]
Response line: 0

Prompt line: Field request: % inhibition at 100 µM | item: cyclo(ICTKSDPAICR[dP]P) (disulfide 2-10) [Example 14]
Response line: 8.7

Here's the next entry for you.
Prompt line: Field request: % inhibition at 100 µM | item: cyclo(ICTKSDPAICR[dP]P) (disulfide 2-10) [Example 52]
Response line: 8.7
